Assay: PK in normal beagle dogs, oral capsules of LY5 powder
Type: in vivo
Details: male, plasma, Dog #1, 25 mg oral capsule, fasted
readout_label: Cmax (nM)
Provide only the numeric value, understood in nM.

What value of measured Cmax is listed for `NS(=O)(=O)c1cccc2c1C(=O)C=C(Nc1cccnc1)C2=O` ?
230

====

Assay: Plasma PK profile in mice
Assay type: in vivo
Settings: ICR, mouse, 5 mg/kg IP
readout_label: Tmax
# do not omit the unit; it follows the number

What value of measured Tmax is listed for `NS(=O)(=O)c1cccc2c1C(=O)C=C(Nc1cccnc1)C2=O` ?
4.98 min

====

Test: Plasma PK profile in mice
Format: in vivo
Conditions: ICR, mouse, 5 mg/kg PO, read-out: AUC inf-obs
readout_label: AUC(0-inf)

What value of measured AUC(0-inf) is listed for `NS(=O)(=O)c1cccc2c1C(=O)C=C(Nc1cccnc1)C2=O` ?
0.898 µM·h

====

Assay: PK in normal beagle dogs, oral capsules of LY5 powder
Format: in vivo
Settings: female, plasma, Dog #2, 25 mg oral capsule, fasted
readout_label: AUC(0-t) (µM·h)
Provide only the numeric value, understood in µM·h.

What value of measured AUC(0-t) is listed for NS(=O)(=O)c1cccc2c1C(=O)C=C(Nc1cccnc1)C2=O [LY5] ?
2.51

====

Assay: PK in normal beagle dogs, IV and oral gavage
Type: in vivo
Settings: male, plasma, Dog #1, PO fed, 1.28 mg/kg
readout_label: AUC (µM·h)
Provide only the numeric value, understood in µM·h.

What value of measured AUC is listed for `NS(=O)(=O)c1cccc2c1C(=O)C=C(Nc1cccnc1)C2=O` ?
0.924

====

Test: PK in normal beagle dogs, IV and oral gavage
Assay type: in vivo
Settings: male, dog, plasma, po, 1 mg/kg, Dog #1, PO fed, read-out: F (oral bioavailability)
Procedure: LY5 was evaluated in two normal purpose-bred beagle dogs (female 8.8 kg; male 11.2 kg) receiving a single dose of 1mg/kg LY5 IV then orally by gavage 7 days later to establish the PK profile and assess the spectrum of clinical toxicities associated with LY5 administration. The oral dosing was repeated in the fed and fasted state. The starting dose was determined based on allometric scaling from the maximal tolerated dose studies performed in mice. […]
readout_label: bioavailability (%)
Provide only the numeric value, understood in %.

What value of measured bioavailability is listed for `NS(=O)(=O)c1cccc2c1C(=O)C=C(Nc1cccnc1)C2=O` ?
14

====

Assay: PK in normal beagle dogs, IV and oral gavage
Type: in vivo
Conditions: female, plasma, Dog #2, PO w/ fast, 0.9 mg/kg
Method: LY5 was evaluated in two normal purpose-bred beagle dogs (female 8.8 kg; male 11.2 kg) receiving a single dose of 1mg/kg LY5 IV then orally by gavage 7 days later to establish the PK profile and assess the spectrum of clinical toxicities associated with LY5 administration. The oral dosing was repeated in the fed and fasted state. The starting dose was determined based on allometric scaling from the maximal tolerated dose studies performed in mice. […]
readout_label: Cmax (nM)
Provide only the numeric value, understood in nM.

What value of measured Cmax is listed for `NS(=O)(=O)c1cccc2c1C(=O)C=C(Nc1cccnc1)C2=O` ?
500

====

Assay: PK in normal beagle dogs, IV and oral gavage
Assay type: in vivo
Settings: female, plasma, Dog #2, IV, 0.97 mg/kg
readout_label: AUC (µM·h)
Provide only the numeric value, understood in µM·h.

What value of measured AUC is listed for `NS(=O)(=O)c1cccc2c1C(=O)C=C(Nc1cccnc1)C2=O` ?
3.92
